Test system: Streptococcus pneumoniae
MEASUREMENT_DESCRIPTION: Antibacterial activity against penicillin-intermediate Streptococcus pneumoniae ATCC 49619 isolated from respiratory tract infected patients assessed as susceptible isolates after 20 to 24 hrs by broth microdilution method
Type: functional
MEASURED_PARAMETER: Activity (%)
// note: answer is a bare numeric in %

smiles_input=C[C@@H](O)[C@H]1C(=O)N2C(C(=O)O)=C(S[C@@H]3CN[C@H](C(=O)N(C)C)C3)[C@H](C)[C@H]12 unit_abbrev=% value_observed=93.2

Lookup: # return recorded Activity for entry `CO/N=C(\C(=O)N[C@@H]1C(=O)N2C(C(=O)O)=C(COC(N)=O)CS[C@H]12)c1ccco1`
Found: 74

Lookup: Give the reported Activity for this compound. `CC[C@H]1OC(=O)[C@H](C)[C@@H](O[C@H]2C[C@@](C)(OC)[C@@H](O)[C@H](C)O2)[C@H](C)[C@@H](O[C@@H]2O[C@H](C)C[C@H](N(C)C)[C@H]2O)[C@](C)(O)C[C@@H](C)CN(C)[C@H](C)[C@@H](O)[C@]1(C)O`
Found: 35.5

Lookup: Fill in Activity for record `C=CC1=C(C(=O)O)N2C(=O)[C@@H](NC(=O)/C(=N\O)c3csc(N)n3)[C@H]2SC1`
Found: 67.5

Lookup: Give recorded Activity. `CC[C@H]1OC(=O)[C@H](C)C(=O)[C@H](C)[C@@H](O[C@@H]2O[C@H](C)C[C@H](N(C)C)[C@H]2O)[C@](C)(OC)C[C@@H](C)C(=O)[C@H](C)[C@H]2N(CCCCn3cnc(-c4cccnc4)c3)C(=O)O[C@]12C`
Found: 100

Lookup: Give the measured Activity for `C[C@H]1COc2c(N3CCN(C)CC3)c(F)cc3c(=O)c(C(=O)O)cn1c23.C[C@H]1COc2c(N3CCN(C)CC3)c(F)cc3c(=O)c(C(=O)O)cn1c23.O`
Found: 98.8
